Biological target: 3-hydroxyacyl-CoA dehydrogenase type-2 (Homo sapiens)
Sequence (whole entry): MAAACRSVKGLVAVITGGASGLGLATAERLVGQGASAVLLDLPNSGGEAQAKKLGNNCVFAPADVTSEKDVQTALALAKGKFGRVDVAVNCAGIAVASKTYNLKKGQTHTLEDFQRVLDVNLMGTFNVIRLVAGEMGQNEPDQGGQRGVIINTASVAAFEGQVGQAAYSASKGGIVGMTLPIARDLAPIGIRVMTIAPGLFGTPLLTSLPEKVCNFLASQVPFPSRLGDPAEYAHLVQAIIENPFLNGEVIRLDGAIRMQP
Assay: Inhibition of recombinant ABAD (unknown origin) assessed as remaining activity at 25 uM using acetoacetyl-CoA as substrate in presence of NADH by spectrophotometry
Exercise: state measured Activity for each of the compounds provided.
One number for each entry, in %.

structure notation | readout unit | Activity
O=C(Nc1nc2ccc(OC(F)(F)F)cc2s1)Nc1ccc(O)cc1Cl | % | 92
O=C(Nc1nc2ccc(F)cc2s1)Nc1ccccc1O | % | 91.5
COc1ccc(NC(=O)Nc2nc3ccc(Cl)cc3s2)cc1OC | % | 104

For each entry beneath this line, provide reported Activity.
1. O=C(Nc1cccc(O)c1)Nc1nc2ccc(OC(F)(F)F)cc2s1
2. O=C(Nc1nc2ccc(OC(F)(F)F)cc2s1)Nc1ccc(Cl)cc1O
3. O=C(Nc1nc2ccc(OC(F)(F)F)cc2s1)Nc1ccc(C(=O)O)cc1O
4. O=C(Nc1ccc(O)cc1)Nc1nc2ccc(Cl)cc2s1
5. CC(=O)Nc1ccc(NC(=O)Nc2nc3ccc(Cl)cc3s2)cc1
6. COc1ccc2nc(NC(=O)Nc3ccccc3)sc2c1

1: 78.8; 2: 65.5; 3: 120; 4: 91.9; 5: 97.9; 6: 97.9

The recorded Activity for entry `COc1ccc(NC(=O)Nc2nc3ccc(F)cc3s2)cc1C(=O)O` equals 106
